test: osmotic lysis modulators in infected erythrocytes, primary screen, PSAC antagonist project, cell-based, P. falciparum Indochina, OD700, 3 h (AID 1156); settings: higher = more signal, called active from +8 up or from −8 down
Observed Property: z-score

>>> observed_value("C=CC[C@]1(C(=O)NCCCOC)N=C(c2ccc(OCCCO)cc2)O[C@H]1c1ccccc1CN=[N+]=[N-]")
1.37
>>> observed_value("CC1CC/C=C\\[C@H]2OC34C=CCN(C(C)(C)C)C(=O)[C@H]3N(CCO)C(=O)[C@@H]4C2C(=O)O1 (some centres undefined)")
-0.474
>>> observed_value("CC#CC(=O)Oc1ccccc1C=CC(=O)OCC")
0.692
>>> observed_value("CCCCC(CC)C(O)C1C=CC2C(=O)N(Cc3ccccc3)C(=O)C2N1n1cnnc1 (centres undefined)")
0.604
>>> observed_value("C=CCNC(=O)[C@@H]1[C@H]2C(=O)O[C@H](c3ccccc3)[C@H](c3ccccc3)N2[C@H](c2ccc(OCCO)cc2)[C@@]12C(=O)Nc1ccc(C#CCC(C(=O)OC)C(=O)OC)cc12")
1.28
>>> observed_value("C=CCNC(=O)[C@@H]1[C@H]2C(=O)O[C@H](c3ccccc3)[C@H](c3ccccc3)N2[C@H](c2ccc(O)cc2)[C@@]12C(=O)N(C(=O)OCCOC)c1ccc(C#CCNC(N)=O)cc12")
0.537
>>> observed_value("C=CCOC(=O)[C@H]1[C@@H]2C(=O)O[C@@H](c3ccccc3)[C@@H](c3ccccc3)N2[C@@H](c2ccc(OCCOC(=O)[C@H]3C[C@H]4C(=O)N[C@@H](CCCCNC(C)=O)C(=O)N4[C@H]3c3cccc(OCCO)c3)cc2)[C@]12C(=O)Nc1ccccc12")
3.95
>>> observed_value("CO[C@H]1O[C@H](CO)[C@@H](OC(=O)Nc2ccccc2)[C@H](OC(=O)Nc2ccccc2)[C@@H]1OC(=O)Nc1ccccc1")
0.111
>>> observed_value("O=C1N[C@@H](Cc2ccccc2)C(=O)N2[C@@H]1C[C@@H](C(=O)O)[C@H]2c1cccc(OCCO)c1")
-2.03
>>> observed_value("CC(C)[Si]1(C(C)C)O[C@@H](c2ccccc2)c2cc(-c3ccc(-c4ccc(Cl)c(Cl)c4)o3)nc(-c3ccccc3)c21")
-0.449
>>> observed_value("C=CCNC(=O)[C@@H]1[C@H]2C(=O)O[C@H](c3ccccc3)[C@H](c3ccccc3)N2[C@H](c2ccc(O)cc2)[C@@]12C(=O)Nc1ccc(C#CCNC(N)=O)cc12")
-0.519
>>> observed_value("CC(C)N1C(=O)C[C@@](C(=O)NCC(F)(F)F)(c2ccc([N+](=O)[O-])cc2)[C@H]1c1ccc(CO)cc1")
0.533
>>> observed_value("COC(=O)[C@@]1(Cc2ccc(OC)cc2)[C@H]2c3cc(C(=O)N4CCCC4)n(CCN4CNCC4=O)c3C[C@H]2CN1C(=O)c1ccccc1")
0.775
>>> observed_value("CCCC#C[Si](O[C@H](CC)c1cn(Cc2cccc(Cl)c2)nn1)(C(C)C)C(C)C")
-0.871

---

assay: cell viability in Huh7 cells, primary screen, cytotoxicity control for HCV replication inhibitor project, CellTiter-Glo luminescence, basal, 48 h (AID 1143); details: Huh7 HCV replicon, higher = more signal, called active from +8 up or from −8 down;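 further: Huh7 hepatoma cells carrying a hepatitis C replication reporter with no stimulus; test concentration not given here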
Rule: z-score of -0.3 or more gives Criterion met; anything lower gives Criterion not met.

>>> assigned_category("CCCCCN1CC=CC23O[C@@H]4/C=C\\CCC(C)OC(=O)C4[C@H]2C(=O)N(C(C)CO)[C@@H]3C1=O (some centres undefined)")
"Criterion met"
>>> assigned_category("C=CCNC(=O)[C@H]1[C@@H]2C(=O)O[C@@H](c3ccccc3)[C@@H](c3ccccc3)N2[C@@H](c2ccccc2OCCO)[C@]12C(=O)Nc1ccc(C#CCCO)cc12")
"Criterion not met"
>>> assigned_category("C#C[C@H](O[Si](C#Cc1ccc(Oc2ccccc2)cc1)(C(C)C)C(C)C)c1ccccc1")
"Criterion not met"
>>> assigned_category("COC(=O)[C@@]1(Cc2ccc(F)cc2)[C@H]2c3cc(C(=O)N4CCCC4)n(Cc4ccc(S(C)(=O)=O)cc4)c3C[C@H]2CN1C(=O)c1ccccc1")
"Criterion not met"
>>> assigned_category("CO[C@H]1O[C@H](CO)[C@@H](OC(=O)Nc2ccc(Oc3ccccc3)cc2)[C@H](OC(=O)Nc2ccc3c(c2)OCO3)[C@H]1OC(=O)Nc1ccc2c(c1)OCO2")
"Criterion not met"
>>> assigned_category("Cc1ccc(S[C@]2(C(=O)NC3CC3)CC(=O)N(Cc3ccccc3)[C@@H]2c2ccc(CO)cc2I)cc1")
"Criterion not met"
>>> assigned_category("C=CC[C@@]12N=C(c3ccc(OCCCO)cc3)O[C@@H]1c1ccccc1N(C)C2=O")
"Criterion not met"
>>> assigned_category("C=C(COC)/C(=C/C[C@@H](OC(=O)c1ccncc1)c1ccc(CO)o1)c1cc(C(=O)OC)ccc1OC")
"Criterion met"
>>> assigned_category("CC1(C)[C@@H]2CC(C(O)C3C=CC4C(=O)N(Cc5ccccc5)C(=O)C4N3n3cnnc3)=C[C@H]1C2 (some centres undefined)")
"Criterion not met"
>>> assigned_category("CC(C)NC(=O)[C@@]1(c2ccc([N+](=O)[O-])cc2)CC(=O)N(C2CCCCC2)[C@@H]1c1ccc(CO)cc1I")
"Criterion not met"
>>> assigned_category("CCCCN1CC=CC23O[C@@H]4C=CCCOC(=O)C4[C@H]2C(=O)N(CCCCCCO)[C@@H]3C1=O (some centres undefined)")
"Criterion met"
>>> assigned_category("COc1ccc(-c2cc3c(c(-c4ccc(Oc5ccccc5)cc4)n2)[Si](C(C)C)(C(C)C)OC3)cn1")
"Criterion not met"
>>> assigned_category("COCCOC(=O)N1C(=O)[C@@]2(c3cc(C#CC4(O)CCCCCC4)ccc31)[C@H](c1ccc(OCCO)cc1)N1[C@H](c3ccccc3)[C@H](c3ccccc3)OC(=O)[C@H]1[C@@H]2C(=O)N1CCN(c2ncccn2)CC1")
"Criterion not met"
>>> assigned_category("CN(C)CCCC[C@@H]1NC(=O)[C@H]2C[C@@H](C(=O)NCCCCCCN)[C@@H](c3ccc(O)cc3)N2C1=O")
"Criterion met"
>>> assigned_category("C=CCN1C(=O)[C@]2(O[C@H](CCn3cc([C@H](O)c4ccccc4)nn3)[C@@H]([Si](C)(C)c3ccc(OC)cc3)[C@@H]2C)c2cc(N3CCC3=O)ccc21")
"Criterion not met"
>>> assigned_category("COc1ccc([C@H]2OC[C@@H]3C[C@@H](Cc4ccccc4)C(=O)N32)cc1")
"Criterion not met"
>>> assigned_category("CN(C)CCCCCCNC(=O)[C@H]1C[C@H]2C(=O)N[C@@H](CCCCN)C(=O)N2[C@H]1c1cccc(OCCO)c1")
"Criterion met"
>>> assigned_category("COC(=O)[C@@]1(Cc2ccc(F)cc2)[C@H]2c3cc(C(=O)N(C)C)n(Cc4ccccc4)c3C[C@H]2CN1C(=O)c1ccccc1")
"Criterion not met"
>>> assigned_category("Oc1ccc2cc[n+](Cc3sc4ccccc4c3Cl)cc2c1")
"Criterion not met"
>>> assigned_category("CCCC[C@H]1OB(O)C[C@H]2C1=C(COC)C[C@H]1C(=O)N(C)C(=O)[C@H]12")
"Criterion met"
>>> assigned_category("C=CCOC(=O)[C@H]1[C@@H]2C(=O)O[C@@H](c3ccccc3)[C@@H](c3ccccc3)N2[C@@H](c2ccc(OCCOC(=O)[C@@H]3C[C@@H]4C(=O)N[C@@H](CCCCNC(C)=O)C(=O)N4[C@@H]3c3ccc(O)cc3)cc2)[C@]12C(=O)Nc1ccccc12")
"Criterion met"
>>> assigned_category("O=C1O[C@H](c2ccccc2)[C@H](c2ccccc2)N2[C@H]1[C@@H](C(=O)N1CCCCCCC1)[C@]1(C(=O)Nc3ccc(C#CC4=CCCCC4)cc31)[C@H]2c1ccc(OCCO)cc1")
"Criterion not met"
>>> assigned_category("C=C(COC)/C(=C/C[C@H](OC(C)=O)c1ccc(CO)o1)c1cc(C(=O)OC)ccc1OC")
"Criterion not met"
>>> assigned_category("CC(C)CNC(=O)[C@@]1(Cc2ccccc2I)c2ccccc2C(=O)N(C2CCCCC2)[C@H]1c1ccc(CO)cc1")
"Criterion not met"

---

experiment: basal S. cerevisiae growth modulation, no modifier, primary screen, OD600, strain BY4716, 24 h, basal condition (AID 1173); conditions: OD600, 24 h, higher = more signal, called active from +8 up or from −8 down
Reported z-score values follow for various compounds
Observed Property: z-score

>>> observed_value("CCCC[C@@H]1C[C@H]1[C@@H](NC(=O)c1ccccc1)c1ccc(C(=O)OC)cc1")
-1.61
>>> observed_value("C=C(COC)/C(=C/C[C@H](OC(C)=O)c1ccc(CO)o1)c1cc(C(=O)OC)ccc1OC")
-0.0209
>>> observed_value("C#C[C@H](O[Si](C#Cc1ccc(Oc2ccccc2)cc1)(C(C)C)C(C)C)c1ccccc1")
-12.7
>>> observed_value("COC(=O)[C@@]1(Cc2ccccc2)N=C(c2ccc(OCCCO)cc2)O[C@H]1c1ccccc1")
-2.46
>>> observed_value("CN(C)C(=O)[C@]1(Cc2ccccc2N=[N+]=[N-])N=C(c2ccc(OCCCO)cc2)O[C@@H]1c1ccccc1N=[N+]=[N-]")
-1.57
>>> observed_value("COc1ccc(CCNC(=O)[C@@]2(C)c3ccccc3C(=O)N(C(C)C)[C@H]2c2ccc(CO)cc2)cc1")
-0.51
>>> observed_value("C=CC[C@]1(C(=O)NCCCOC)N=C(c2ccc(OCCCO)cc2)O[C@H]1c1ccccc1CN=[N+]=[N-]")
-0.024
>>> observed_value("COc1cc(NN2C(C(O)c3ccco3)C=CC3C(=O)N(c4ccccc4)C(=O)C32)cc(OC)c1OC (configuration not stated)")
1.58
>>> observed_value("CCOC(=O)C[C@H]1[C@H](OC(=O)c2ccc(-c3ccccc3)cc2)[C@@H](NC(=O)Cc2ccc(OC)cc2)c2cc(OCCCO)ccc2N1C(=O)c1ccccc1")
0.695
>>> observed_value("COc1ccccc1CN1C(=O)c2ccccc2[C@@H](C(=O)NC2CC2)[C@@H]1c1ccc(CO)cc1")
-0.561
>>> observed_value("COC(=O)[C@@]1(Cc2ccc(F)cc2)[C@H]2c3cc(C(=O)N4CCCC4)n(CCCNc4ncc(C(F)(F)F)cc4Cl)c3C[C@H]2CN1C(=O)c1ccccc1")
2.05
>>> observed_value("COCCOC(=O)N1C(=O)[C@@]2(c3cc(C#Cc4ccc(OC)cc4)ccc31)[C@H](c1ccc(O)cc1)N1[C@H](c3ccccc3)[C@H](c3ccccc3)OC(=O)[C@H]1[C@@H]2C(=O)N1CCc2cc(OC)c(OC)cc2C1")
-0.465
>>> observed_value("COCCOC(=O)N1C(=O)[C@@]2(c3cc(C#Cc4ccc(OC)cc4)ccc31)[C@H](c1ccc(OCCO)cc1)N1[C@H](c3ccccc3)[C@H](c3ccccc3)OC(=O)[C@H]1[C@@H]2C(=O)N1CCN(c2ncccn2)CC1")
3.4
>>> observed_value("CC(C)=CCCC(C)=CC(O)C1C=CC2C(=O)N(C)C(=O)C2N1Nc1ccccc1 (configuration not stated)")
-4.94
>>> observed_value("NCCCCCCNC(=O)[C@@H]1C[C@@H]2C(=O)NCC(=O)N2[C@@H]1c1ccc(O)cc1")
0.333
>>> observed_value("O=C1N[C@@H](Cc2ccccc2)C(=O)N2[C@@H]1C[C@@H](C(=O)O)[C@H]2c1cccc(OCCO)c1")
0.165
>>> observed_value("CC1CC/C=C\\[C@H]2OC34C=CCN(C(C)(C)C)C(=O)[C@H]3N(C(C)CO)C(=O)[C@@H]4C2C(=O)O1 (some centres not stated)")
-0.623
>>> observed_value("COc1ccc([Si](C)(C)[C@@H]2[C@@H](CCO)O[C@]3(C(=O)N(Cc4ccc(N(C=O)c5ccccc5)cc4)c4ccccc43)[C@H]2C)cc1")
1.76
>>> observed_value("Cc1ccc(S[C@]2(C(=O)NCCCN(C)C)CC(=O)N(Cc3cc(C(F)(F)F)cc(C(F)(F)F)c3)[C@@H]2c2ccc(CO)cc2I)cc1")
-4.35
>>> observed_value("C=CCN1C(=O)[C@]2(O[C@H](CCn3cc([C@H](O)c4ccccc4)nn3)[C@@H]([Si](C)(C)c3ccc(OC)cc3)[C@@H]2C)c2cc(N3CCC3=O)ccc21")
0.743
>>> observed_value("COC(=O)C(CC#Cc1ccc2c(c1)[C@]1(C(=O)N2)[C@H](c2ccc(OCCO)cc2)N2[C@H](c3ccccc3)[C@H](c3ccccc3)OC(=O)[C@H]2[C@@H]1C(=O)Nc1nc2ccccc2s1)C(=O)OC")
2.09
>>> observed_value("C=C[C@H](C)[C@@H](OC(=O)Nc1ccc(OC)cc1)c1ccc(O)c2ccccc12")
-18.2
